- Test system: SN12C renal
- experimentNotes: NCI-60 one-dose screen, 48 h (100 = growth as untreated, 0 = no growth, -100 = all killed)
- conditionParameters: 10 µM unless noted
- Protocol: Growth inhibition of the SN12C human tumor cell line is measured as a screen for anti-cancer activity. Cells are grown in 96 well plates and exposed to the test compound for 48 hours. Compounds are tested at a single concentration, which is 10^-5 M for most compounds. The reported endpoint is percent growth (GI% or GIPRCNT), where numbers from 0 - 100% represent growth inhibition, and numbers from -100% - 0 represent cell death. For example, a value of 40 represents 60% growth inhibition. […]
The panel holds about 83,000 compounds, 20% with a hit somewhere; the sample as a whole holds those more often.

# compound, growth (%)
data = [
    ("CCCCn1c(=O)c(C(=O)NCc2ccccc2Cl)c(O)c2ccccc21", 76.7),
    ("O=C(NC1=NCC[Se]1)c1ccccc1O", 68.4),
    ("O=[N+]([O-])c1cc(Cl)c(Cl)c([N+](=O)[O-])c1Cl", 23.1),
    ("CNC(=O)Oc1ccc(Cl)cc1SSc1cc(Cl)ccc1OC(=O)NC", 70.9),
    ("O=C(O)c1cc([N+](=O)[O-])cc([N+](=O)[O-])c1", 97.5),
    ("Nc1ccc2c(c1)Cc1cc(N)ccc1-2", 90.5),
    ("COc1ccc(N(CC(=O)NCCC[Te]c2ccccc2)C(=O)c2ccccc2)cc1", 19.9),
    ("O=P1(N(CCCl)CCCl)NCCCO1 (configuration not stated)", 95.4),
    ("O=[N+]([O-])c1ccc2scc3c4ccccc4nc-3c2c1", -36),
    ("Oc1cc(Cl)ccc1Oc1ccc(Cl)cc1Cl", 10.9),
    ("C/C(=C(\\c1ccc(OCCN2CCOCC2)cc1)c1ccc(OC(=O)Cc2ccccc2)cc1)c1ccc(Cl)cc1", 91.2),
    ("O=NN1CCCCC1", 98.7),
]
